system: Vero E6; experiment: cell viability relative to DMSO; higher = less toxic; details: 72 h; 10 nM
Measured parameter: cell viability (%)
Give bare numbers, in %.

Use the examples below as a reference point.
{"Molecule": "Brc1c(Br)c(Br)c2[nH]nnc2c1Br", "cell viability, %": 103}
{"Molecule": "CCCCC/N=c1\\ccn(Cc2ccccc2)c2ccccc12", "cell viability, %": 100}
{"Molecule": "O=c1[nH]c2ccccc2n1CCCN1CCC(n2c(=O)[nH]c3cc(Cl)ccc32)CC1", "cell viability, %": 93.8}
{"Molecule": "Nc1ncnc2c1ncn2[C@H]1CC[C@@H](CO)O1", "cell viability, %": 98}
{"Molecule": "CC(C)(N)CC12CC3CC(CC(C3)C1)C2", "cell viability, %": 98.3}

Report cell viability for each item below.
1. FCc1ccc(OCCOc2ccc(Cl)cc2Cl)c(Cl)n1
2. CCN(CC)CCOC(=O)C(c1ccccc1)c1ccccc1
3. CC(C)(C)[C@]1(O)CC2OC(=O)CC23C(=O)OC2OC(=O)[C@H](O)C231 (stereo partly specified) [bilobalide]
4. CC1(C)C(=O)N(c2ccc(C#N)c(C(F)(F)F)c2)C(=O)N1CCCCO
5. CN1CCc2nc(C(=O)N[C@@H]3C[C@@H](C(=O)N(C)C)CC[C@@H]3NC(=O)C(=O)Nc3ccc(Cl)cn3)sc2C1

**A:**
1. 105
2. 116
3. 104
4. 103
5. 96

Each molecule below has a reported value. Please supply its cell viability.
1. CN1CCN(c2ccc3ccccc3n2)CC1
2. Cc1ccc(O)c(N=Nc2ccccc2)n1
3. COc1ccc2[nH]c(-c3ccccc3)c(CCNC(C)=O)c2c1
4. CCC[C@@H]1CC(=O)N([C@@H](CC)C(N)=O)C1
5. COc1cc2c(cc1OC(C)C)[C@H](c1ccc(Cl)cc1)N(c1ccc(N(C)C[C@H]3CC[C@H](N4CCN(C)C(=O)C4)CC3)cc1)C(=O)C2
6. O=C(O)CSc1nnc(Br)n1-c1ccc(C2CC2)c2ccccc12

**A:**
97.8
94.6
99.9
96.2
105
100
